- tested target: hGLP-1R (Homo sapiens, UniProt P43220)
- Sequence (P43220 24-463): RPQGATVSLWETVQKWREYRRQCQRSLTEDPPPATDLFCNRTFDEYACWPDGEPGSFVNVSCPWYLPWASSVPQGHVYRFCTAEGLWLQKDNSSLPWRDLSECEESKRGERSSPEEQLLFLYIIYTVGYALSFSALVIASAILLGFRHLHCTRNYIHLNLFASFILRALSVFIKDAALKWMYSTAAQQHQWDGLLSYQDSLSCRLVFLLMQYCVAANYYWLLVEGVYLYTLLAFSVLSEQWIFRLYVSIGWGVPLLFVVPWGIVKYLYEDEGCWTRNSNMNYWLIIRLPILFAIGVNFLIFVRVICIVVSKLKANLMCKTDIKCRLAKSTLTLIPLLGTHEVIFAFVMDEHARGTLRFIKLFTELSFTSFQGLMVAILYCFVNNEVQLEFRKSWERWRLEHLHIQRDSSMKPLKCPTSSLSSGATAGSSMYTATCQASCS
- test description: cell-based or functional assay
Starred links: 1 amine or outer side, 2 acyl side, 3 side chain; linkers in the order of their positions; H or OH if unused. Non-standard residues stand in square brackets, D forms with d. Groups on a side chain read outwards from the residue. No end group written: not given here. *: point of attachment. C18 diacid = O=C(O)CCCCCCCCCCCCCCCCC(=O)*; γGlu = O=C(O)[C@H](CCC(=O)[*:2])N[*:1]; αMeL = CC(C)C[C@](C)(N)C(=O)O; Dab = NCC[C@H](N)C(=O)O; AEEA = NCCOCCOCC(=O)O; Aib = CC(C)(N)C(=O)O
Hi, to clarify the labels: true covers cAMP Rel EC50, nM (in the presence of 1% HSA) from 600 nM upward, false covers anything below 600 nM.

Given the entry YXQGTFTSDFSXXLDKKAQXAFIEWLLEGGHSSGAPPPSGE (synthetic construct; SITE 2: note = 2-Aminoisobutyric Acid; SITE 12: note = L-ornithine; SITE 13: note = alpha-methyl-leucine; SITE 17: note = Lysine is chemically modified through conjugation of the epsilon-amino group of the Lysine side chain with (2-[2-(2-Amino-ethoxy)-ethoxy]-acetyl)-(gamma-Glu)) [Example 122] , answer whether its cAMP Rel EC50, nM (in the presence of 1% HSA) meets or surpasses 600 nM.
false

Given the entry YXQGTFTSDFSXXLDKKAQXAFIEYLLEGGPSSGEPPPSGS (synthetic construct; SITE 2: note = 2-Aminoisobutyric Acid; SITE 12: note = L-ornithine; SITE 13: note = alpha-methyl-leucine; SITE 17: note = Lysine is chemically modified through conjugation of the epsilon-amino group of the Lysine side chain with (2-[2-(2-Amino-ethoxy)-ethoxy]-acetyl)-(gamma-Glu)) [Example 131] , answer whether its cAMP Rel EC50, nM (in the presence of 1% HSA) meets or surpasses 600 nM.
true

Given the entry YXQGTFTSDFSKXLDKKAQXAFIEYLLEGGPSSGEPPPGEGX (synthetic construct; SITE 2: note = 2-Aminoisobutyric Acid; SITE 13: note = alpha-methyl-leucine; SITE 17: note = Lysine is chemically modified through conjugation of the epsilon-amino group of the Lysine side chain with (2-[2-(2-Amino-ethoxy)-ethoxy]-acetyl)-(gamma-Glu)-CO-(CH2) 18-CO2H; SITE 20: n) [Example 54] , answer whether its cAMP Rel EC50, nM (in the presence of 1% HSA) meets or surpasses 600 nM.
true

Given the entry YXQGTFTSDFSXXLDKKAQXAFIEWLLEGGPSSGAPPPEGS (synthetic construct; SITE 2: note = 2-Aminoisobutyric Acid; SITE 12: note = L-ornithine; SITE 13: note = alpha-methyl-leucine; SITE 17: note = Lysine is chemically modified through conjugation of the epsilon-amino group of the Lysine side chain with (2-[2-(2-Amino-ethoxy)-ethoxy]-acetyl)-(gamma-Glu)) [Example 121] , answer whether its cAMP Rel EC50, nM (in the presence of 1% HSA) meets or surpasses 600 nM.
false

Given the entry YXQGTFTSDFSXXLDKKAQXAFIEWLLEGGHSSGAPPPEGS (synthetic construct; SITE 2: note = 2-Aminoisobutyric Acid; SITE 12: note = L-ornithine; SITE 13: note = alpha-methyl-leucine; SITE 17: note = Lysine is chemically modified through conjugation of the epsilon-amino group of the Lysine side chain with (2-[2-(2-Amino-ethoxy)-ethoxy]-acetyl)-(gamma-Glu)) [Example 126] , answer whether its cAMP Rel EC50, nM (in the presence of 1% HSA) meets or surpasses 600 nM.
true

Given the entry YXQGTFTSDFSXXLDKKAQXAFIEYLLEXGPSSGAPPPSGS (synthetic construct; SITE 2: note = 2-Aminoisobutyric Acid; SITE 12: note = L-ornithine; SITE 13: note = alpha-methyl-leucine; SITE 17: note = Lysine is chemically modified through conjugation of the epsilon-amino group of the Lysine side chain with (2-[2-(2-Amino-ethoxy)-ethoxy]-acetyl)2-(gamma-Glu)) [Example 75] , answer whether its cAMP Rel EC50, nM (in the presence of 1% HSA) meets or surpasses 600 nM.
true

Given the entry YXQGTFTSDFSXXLDKKAQXAFIEWLLAGGPSSGEPPPSGE (synthetic construct; SITE 2: note = 2-Aminoisobutyric Acid; SITE 12: note = L-ornithine; SITE 13: note = alpha-methyl-leucine; SITE 17: note = Lysine is chemically modified through conjugation of the epsilon-amino group of the Lysine side chain with (2-[2-(2-Amino-ethoxy)-ethoxy]-acetyl)-(gamma-Glu)) [Example 103] , answer whether its cAMP Rel EC50, nM (in the presence of 1% HSA) meets or surpasses 600 nM.
false

Given the entry Y[Aib]QGTFTSDFS[Dab][αMeL]LDKK([AEEA-γGlu-C18 diacid])AQ[Aib]AFIEYLLE[Aib]GPSSGAPPPSGS-NH2 (ends and bridges not checked) [Example 133] , answer whether its cAMP Rel EC50, nM (in the presence of 1% HSA) meets or surpasses 600 nM.
true

Given the entry YXQGTFTSDFSXXLDKKAQXAFIEYLLAGGPSSGAPPPSGS (synthetic construct; SITE 2: note = 2-Aminoisobutyric Acid; SITE 12: note = L-ornithine; SITE 13: note = alpha-methyl-leucine; SITE 17: note = Lysine is chemically modified through conjugation of the epsilon-amino group of the Lysine side chain with (2-[2-(2-Amino-ethoxy)-ethoxy]-acetyl)-(gamma-Glu)) [Example 76] , answer whether its cAMP Rel EC50, nM (in the presence of 1% HSA) meets or surpasses 600 nM.
false

Given the entry YXQGTFTSDFSXXLDKKAQXAFIEWLLEGGPSSGAPXPSGE (synthetic construct; SITE 2: note = 2-Aminoisobutyric Acid; SITE 12: note = L-ornithine; SITE 13: note = alpha-methyl-leucine; SITE 17: note = Lysine is chemically modified through conjugation of the epsilon-amino group of the Lysine side chain with (2-[2-(2-Amino-ethoxy)-ethoxy]-acetyl)-(gamma-Glu)) [Example 137] , answer whether its cAMP Rel EC50, nM (in the presence of 1% HSA) meets or surpasses 600 nM.
false

Given the entry YXQGTFTSDXSRXLDKKAQXAFIEYLLEXGPSSGAPPPSGE (synthetic construct; SITE 2: note = 2-Aminoisobutyric Acid; SITE 10: note = 3-(4-Pyridyl)-L-alanine; SITE 13: note = alpha-methyl-leucine; SITE 17: note = Lysine is chemically modified through conjugation of the epsilon-amino group of the Lysine side chain with (2-[2-(2-Amino-ethoxy)-ethoxy]-acetyl)) [Example 114] , answer whether its cAMP Rel EC50, nM (in the presence of 1% HSA) meets or surpasses 600 nM.
true

Reference source: patent US20240270821A1
